src = patent US7459446B2

Tested on: fructosamine oxidase
Assay method text: fructosamine oxidase inhibition assay in human sera (ferricytochrome c, g-BSA substrate)
Assay type: biochemical
Test parameters: 10.0 μM inhibitor (*)
Marks after values point to notes of the source that are not given here.
Overview of reported K (velocity/rate constant) across a group of compounds:

# count of solved cases: 3
Compound	System tested	Endpoint value
NC(CO)C(=O)NNCc1ccc(O)c(O)c1O (stereo not shown) [benserazide]	fructosamine oxidase	0.0095* min^−1
CC(=O)N(O)CCCCCNC(=O)CCC(=O)N(O)CCCCCNC(=O)CCC(=O)N(O)CCCCCN [desferrioxamine]	fructosamine oxidase	0.0109* min^−1
N=C(N)NN [aminoguanidine]	fructosamine oxidase	0.0067* min^−1

# context switch: different compound, same K (velocity/rate constant)
Item: O=C(O)CN(CCN(CC(=O)O)CC(=O)O)CC(=O)O [EDTA, ethylenediamine tetraacetic acid] | K (velocity/rate constant): 0.0755* min^−1
